meta.source: PubChem BioAssay (Tox21)

target under test: Cytochrome P450 1A2 (Homo sapiens) (UniProt P05177)
Sequence (P05177 whole entry, looked up): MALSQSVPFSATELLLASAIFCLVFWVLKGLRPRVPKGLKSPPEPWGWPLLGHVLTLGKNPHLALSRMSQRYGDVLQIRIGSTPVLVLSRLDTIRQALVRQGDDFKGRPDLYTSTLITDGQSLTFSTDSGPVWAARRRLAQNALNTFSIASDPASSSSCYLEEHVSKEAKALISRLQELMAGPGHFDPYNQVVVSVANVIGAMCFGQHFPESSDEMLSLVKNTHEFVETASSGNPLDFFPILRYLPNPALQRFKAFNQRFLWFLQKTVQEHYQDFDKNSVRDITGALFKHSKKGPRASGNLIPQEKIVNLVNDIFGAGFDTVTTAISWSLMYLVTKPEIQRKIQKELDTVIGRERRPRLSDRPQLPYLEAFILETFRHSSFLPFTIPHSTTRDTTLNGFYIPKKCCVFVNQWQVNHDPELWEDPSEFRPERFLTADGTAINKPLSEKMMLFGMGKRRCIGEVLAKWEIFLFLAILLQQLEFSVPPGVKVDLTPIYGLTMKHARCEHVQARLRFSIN
assay protocol: Cytochrome P450 Family 1 Subfamily A Member 2 (CYP1A2) small molecule antagonists: luciferase reporter qHTS assay (AID 1671199); note: nearly all actives have a fitted effect of over 50% in size; note: potency is the fitted concentration of half-maximal effect
test conditions: P450-Glo CYP1A2 enzyme, luciferin luminescence, 1 h; series mostly up to 115 µM
Records with an inconclusive call do not appear. The source made the active and inactive calls. Calls come from the whole dose curve; as a rule, active = well fitted inhibition curve with a large enough effect in the repeat runs; inconclusive = weak or mixed curves; inactive = no such curve, though single readings can be large or run the other way.
readout type: Potency

These recorded examples may help you get a feel for the data.
Give Potency for this entry on Cytochrome P450 1A2 (Homo sapiens) (UniProt P05177): "CC(C)(C)C1=CC(=O)C(C(C)(C)C)=CC1=O" 17.4 µM (active)

Using Cytochrome P450 1A2 (Homo sapiens) (UniProt P05177) as the test system, report measured Potency of "C/C=C/C(=O)OCC(C)C" . inactive

Give reported Potency for "Cc1ccc(S(=O)(=O)C(I)I)cc1" (Cytochrome P450 1A2 (Homo sapiens) (UniProt P05177)) 31.7 µM (active)

Give measured Potency for "O=c1[nH]cccc1O" (Cytochrome P450 1A2 (Homo sapiens) (UniProt P05177)). inactive

Given "Cc1ccc2sc3cccc(C)c3c2c1" , report its Potency on Cytochrome P450 1A2 (Homo sapiens) (UniProt P05177). 2.52 µM (active)

Report Potency on Cytochrome P450 1A2 (Homo sapiens) (UniProt P05177) for this entry: "Oc1ccc(C2(c3ccc(O)c(C4CCCCC4)c3)CCCCC2)cc1C1CCCCC1" inactive

Next:
Fill in: Potency on Cytochrome P450 1A2 (Homo sapiens) (UniProt P05177), entry "CCc1cccc(CC)c1" inactive

Report value only: Potency, Cytochrome P450 1A2 (Homo sapiens) (UniProt P05177), "CC/C=C\C/C=C\C/C=C\CCCCCCCC(=O)OC" 63.3 µM (active)

Find the measured Potency of "N#Cc1nc(Cl)c(Cl)c(Cl)c1Cl" with Cytochrome P450 1A2 (Homo sapiens) (UniProt P05177) as test system. 5.03 µM (active)

State Potency on Cytochrome P450 1A2 (Homo sapiens) (UniProt P05177). Entry: "COc1ccc(OC)c(N=Nc2c(O)ccc3ccccc23)c1" 0.894 µM (active)

Determine reported Potency for "CCCCC/C=C\C=C\C(=O)OCC" ; test system: Cytochrome P450 1A2 (Homo sapiens) (UniProt P05177). 37.1 µM (active)

Jot down Potency (Cytochrome P450 1A2 (Homo sapiens) (UniProt P05177)) of "Nc1cc([N+](=O)[O-])ccc1Cl" . 17.8 µM (active)

Enter Potency (test system Cytochrome P450 1A2 (Homo sapiens) (UniProt P05177)) for "SC1CCCCC1" inactive

====

target under test: Aryl hydrocarbon receptor (Homo sapiens)
assay protocol: qHTS assay to identify small molecule that activate the aryl hydrocarbon receptor (AhR) signaling pathway (AID 743085); note: nearly all actives have a fitted effect of over 15% in size;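 for activation: HG2L7.5c1 human HepG2 liver cells with stably integrated DRE-driven firefly reporter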
test conditions: HepG2 AhR-luc (HG2L7.5c1), luciferase, 24 h; series mostly up to 70.3 µM
Records with an inconclusive call do not appear. Calls of active or inactive are those of the source. The call rests on the fitted dose curve; in most records, active means well fitted activation curve with a large enough effect in the repeat runs; inconclusive means weak or mixed curves; inactive means no such curve, though single readings can be large or run the other way.
Write down the outcome that applies. Available outcomes: Yes for active, No for inactive

Any idea what this test logged for "CS(=O)(=O)c1ccc([C@@H](O)[C@@H](COC(=O)CN)NC(=O)C(Cl)Cl)cc1" ? No

For "CC/C=C\C/C=C\C/C=C\C/C=C\C/C=C\C/C=C\CCC(=O)O" , what call appears in the results of this test? No

I would be grateful if you could indicate the recorded call for "COc1ccc(/C=C/C(=O)O)cc1" . No

Give the logged outcome of this assay for the following compound: "CC1(C)CCC(NC(=O)[C@@H](N)CCC(=O)O)CC1" No

Outcome? "O=C1CC[C@@H](C(=O)N[C@H]2C[C@@H]2c2ccccc2)N1" No

GET /call?item= Cc1cc(CC(C)CC(C)(C)C)n(O)c(=O)c1 (stereo unspecified) (tested in a mixture with another compound) returns the recorded outcome of this test. No

Fill in: this test's call for O=C(O)/C=C/C(O)c1ccc(Cl)cc1 (stereo unspecified) is ___ No

Dear all, I need the recorded test outcome for "C[N+](C)(C)CCOP(=O)(O)OP(=O)([O-])OC[C@H]1O[C@@H](n2ccc(N)nc2=O)[C@H](O)[C@@H]1O" , thank you. No

Short answer needed: outcome of this test for CN1C(C(=O)Nc2ccccn2)C(=O)c2sc(Cl)cc2S1(=O)=O (stereo unspecified) ? No

Which outcome was assigned to C=CC1=C(C(=O)O)N2C(=O)[C@@H](NC(=O)/C(=N/OCC(=O)O)c3csc(N)n3)[C@H]2SC1 (stereo in doubt) in this test? No

Per the records of this test, what outcome belongs to "CCOC(=O)COc1ccc2c(=O)cc(-c3ccccc3)oc2c1" ? No

# fetch the recorded call for "CC(C)Cc1ccc([C@H](C)C(=O)O)cc1" here No

# outcome recorded in this test, key = "OCC1(CO)COC(C(Cl)(Cl)Cl)OC1" No

Name the outcome recorded for "c1ccc2cc3c4ccccc4c4ccccc4c3cc2c1" in the assay. Yes

Dear all, I need the recorded test outcome for "N[C@@H](Cc1ccc(O)c(O)c1)C(=O)O" , thank you. No

# outcome recorded in this test, key = "NCc1cccc(C2CCN(C(=O)c3ccc(C#Cc4ccccc4F)o3)CC2)c1" No

What outcome does the record of this test show for Cc1cccc(C)c1NC(=O)C1CCCCN1C (stereo unspecified) ? No

Given "CN1C(=O)C[C@@H](C(=O)N[C@@H](Cc2cnc[nH]2)C(=O)N2CCC[C@H]2C(N)=O)NC1=O" , state the outcome it received in this test. No

Hello, I am checking results. What call was entered for CC(C)(Oc1ccc(C2CCCc3ccccc32)cc1)C(=O)O (stereo unspecified) ? No

Query: recorded result category for "CCCCCCCCCC[N+](C)(CCCCCCCCCC)CCC[Si](OC)(OC)OC" in this test No

Which outcome was assigned to "NC[C@@H]1CC[C@@H](N)[C@@H](O[C@H]2[C@H](O)[C@@H](O[C@H]3O[C@H](CO)[C@@H](O)[C@H](N)[C@H]3O)[C@H](N)C[C@@H]2N)O1" in this test? No

====

assay protocol: qHTS assay for identifying genotoxic compounds that show differential cytotoxicity against isogenic chicken DT40 cell lines with known DNA damage response pathways - Rev3 mutant cell line (AID 743014); note: nearly all actives have a fitted effect of over 55% in size
test conditions: chicken DT40 Rev3-/- viability, CellTiter-Glo, 40 h; series mostly up to 68.4 µM
Inconclusive results are not listed. Active and inactive are the calls of the source. The call rests on the fitted dose curve; in most records, active means well fitted cell-killing curve with a large enough effect in the repeat runs; inconclusive means weak or mixed curves, or effect the other way; inactive means no such curve, though single readings can be large or run the other way. Positions of bridges follow the written chain, without caps; N, C: chain ends. Non-standard residues stand in square brackets, D forms with d. Residues, ends and D or L forms follow the SMILES beside them. *: point of attachment. X1 = CC[C@@H](C)[C@@H](N)C1=N[C@H](C(=O)*)CS1; d(aIle) = CC[C@H](C)[C@@H](N)C(=O)O; dOrn = NCCC[C@@H](N)C(=O)O
Outcome (select one): 1 (active), -1 (inactive)

Test call for this compound, please: CCC(NC(C)C)C(O)c1ccc(O)c(O)c1 (configuration not stated) -1

Outcome? "C[C@H](Cc1ccc(O)c(O)c1)[C@@H](C)Cc1ccc(O)c(O)c1" 1

Would you mind telling me which call this test gave "Cc1ccc2nc(-c3ccc(N)cc3)sc2c1S(=O)(=O)O" ? -1

What did this assay record as the result for "CN[C@H]1CC[C@@H](c2ccc(Cl)c(Cl)c2)c2ccc(S(N)(=O)=O)cc21" ? 1

Per the assay record, what outcome was assigned to "CO/N=C(\C(=O)N[C@@H]1C(=O)N2C(C(=O)O)=C(C[N+]3(C)CCCC3)CS[C@H]12)c1csc(N)n1" ? -1

Per the assay record, what outcome was assigned to CC[C@@H](C)[C@@H](N)C1=N[C@H](C(=O)N[C@@H](CC(C)C)C(=O)N[C@@H](CCC(=O)O)C(=O)N[C@@H](C(=O)N[C@@H]2CCCCNC(=O)[C@@H](CC(N)=O)NC(=O)[C@@H](CC(=O)O)NC(=O)[C@@H](Cc3cnc[nH]3)NC(=O)[C@@H](Cc3ccccc3)NC(=O)[C@@H]([C@H](C)CC)NC(=O)[C@@H](CCCN)NC2=O)[C@@H](C)CC)CS1 (X1-LE[d(aIle)][dK][dOrn][dI][dF][dH][dD][dN]; lactam 4-C) ? -1

Recorded call for "Clc1nc(C(Cl)(Cl)Cl)c(Cl)c(Cl)c1Cl" ? 1

====

assay protocol: qHTS RealTime-Glo MT Cell Viability Assay in HEK293 cells - 32 hour (AID 1224868); note: nearly all actives have a fitted effect of over 50% in size
test conditions: RealTime-Glo luminescence; series mostly up to 76.8 µM
Results filed as inconclusive are left out. Activity calls are given as the source filed them. Calls follow the shape of the dose curve; as a rule, active = well fitted cell-killing curve with a large enough effect in the repeat runs; inconclusive = weak or mixed curves, or effect the other way; inactive = flat fitted curve, though single readings scatter.
Output constraint: value belongs to active, inactive

What did the test return for "O=C(NCc1ncc(C(F)(F)F)cc1Cl)c1c(Cl)cccc1Cl" ? active

What did the test return for "O=C1CCC/C=C\CCCCCCCCCC1" ? inactive

Assay outcome for NC(=O)C1CO1 (configuration not stated) : what was it? inactive

I'd appreciate the recorded outcome for "CC(C)=CCC[C@H](C)CC=O" from this test. inactive

Tell me the recorded outcome of this test for "N#Cc1ccc(C/C(=N/NC(=O)Nc2ccc(OC(F)(F)F)cc2)c2cccc(C(F)(F)F)c2)cc1" . inactive

Check the results log: what was the call for "CCOC(=O)[C@H](C)O" ? inactive

Hi, do you know how "CN(C[C@@H](CC[N+]12CCC(C3CCCCC3)(CC1)CC2)c1ccc(Cl)c(Cl)c1)C(=O)c1cc(C(F)(F)F)cc(C(F)(F)F)c1" came out in this test? active

Test call, this compound: "c1ccc(-c2ccccc2-c2ccccc2)cc1" inactive

Could you check what this test reported for CC(CC(C)(C)C)CC(C)(C)CC(C)(C)C (configuration not stated) ? inactive

Check the results log: what was the call for "COc1cc([C@@H]2c3cc4c(cc3[C@@H](O[C@@H]3O[C@@H]5CO[C@@H](C)O[C@H]5[C@H](O)[C@H]3O)[C@H]3COC(=O)[C@H]23)OCO4)cc(OC)c1O" ? active

Assay outcome for "N#CCCOCCC#N" : what was it? inactive

Please let me know the test result on file for "O[Si](c1ccccc1)(c1ccccc1)c1ccccc1" . active

Identify the outcome logged in this assay for the compound shown: "CCOC=C(C(=O)OCC)C(=O)OCC" inactive

I would be grateful if you could indicate the recorded call for "C=Cc1ccncc1" . inactive

Outcome? "O=c1cc[nH]cc1" inactive

Please indicate how the test categorized "CCCCCCCCc1ccc(Nc2ccc(CCCCCCCC)cc2)cc1" . inactive

Look up the recorded call for "COc1c(Br)cc(Br)c(C)c1Br" in this test. inactive

# lookup: test call for "CCN(CC)c1ccc(C=O)c(O)c1" inactive

For "CCCCCCCC/C=C\CCCCCCCC(=O)N(CCO)CCO" , which call appears in the assay record? active

Just curious, what result did "SC1CCCCC1" get here? inactive

Entry "C/C(=N\[Si](C)(C)C)O[Si](C)(C)C" : call = ? inactive

Fill in: this test's call for "COC(=O)c1ccc([N+](=O)[O-])cc1" is ___ inactive

Call for entry "Cc1ccc2nc(-c3ccc(N)cc3)sc2c1S(=O)(=O)O" : inactive

Returns: the outcome recorded for "NC(=O)c1ccccc1Cl" in this assay. inactive

Write down the call the test reported for this compound. Item: "O=C1OC2(c3ccccc31)c1ccc(O)c(Br)c1Oc1c2ccc(O)c1Br" inactive

I'd appreciate the recorded outcome for "Cc1ccc(S(=O)(=O)C(I)I)cc1" from this test. active

Which outcome did this test record for the compound "O=C1OCc2ccccc21" ? inactive
